Each entry below lists one item and its recorded EC50 value.
system: H1N1; assay: Inhibition of H1N1-induced CPE in MDCK cells; assay type: cell-based, influenza virus A/human/Hubei/86/2009 (H1N1); conditions: Influenza A virus, H1N1; MDCK cells, 100 TCID50, 48 h, CPE; — = less than 50% inhibition; read-out: EC50 H1N1

COMPOUND: CCCCc1ncc(-c2c[nH]c3ccccc23)o1
TESTED TARGET: H1N1
UNIT TAG: µM
EC50: 24
--
COMPOUND: NC12CC3CC(CC(C3)C1)C2 [Amantadine, reference compound]
TESTED TARGET: H1N1
UNIT TAG: µM
EC50: 73

* * *

Each entry below lists one item and its recorded CC50 at 48 h value.
test: Cytotoxicity, MTT method, MDCK cells; type: cell-based, canine; conditions: dog, uninfected MDCK cells, host cells of H1N1: MDCK

COMPOUND: NC12CC3CC(CC(C3)C1)C2 [Amantadine, reference compound]
CC50 at 48 h: > 2000 µM
//
COMPOUND: CCCCc1ncc(-c2c[nH]c3ccccc23)o1 [WS-30581 B]
CC50 at 48 h: 215 µM
//
COMPOUND: Cc1ncc(-c2c[nH]c3ccccc23)o1 [Pimprinine, 5, 30-indolyl-2-methyloxazole]
CC50 at 48 h: 899 µM
//
COMPOUND: CCCc1ncc(-c2c[nH]c3ccccc23)o1 [WS-30581 A]
CC50 at 48 h: 212 µM
//
COMPOUND: CCc1ncc(-c2c[nH]c3ccccc23)o1 [Pimprinethine]
CC50 at 48 h: 577 µM

* * *

tested on: CVB3; test: Inhibition of CVB3-induced CPE in Hep-2 cells; details: Enterovirus B, CVB3, HEp-2, 48 h, read-out: EC50 CVB3

COMPOUND STRING: CCCCc1ncc(-c2c[nH]c3ccccc23)o1
TESTED TARGET: CVB3
EC50: 12 µM
//
COMPOUND STRING: CCCc1ncc(-c2c[nH]c3ccccc23)o1
TESTED TARGET: CVB3
EC50: 14 µM
//
COMPOUND STRING: Cc1ncc(-c2c[nH]c3ccccc23)o1
TESTED TARGET: CVB3
EC50: 95 µM
